System: Staphylococcus aureus
Test: In vitro activity against MRSA (A27223; homogeneous strain) by standard broth dilution method
Format: functional
Conditions: Staphylococcus aureus; read-out: MIC
experimental_endpoint: MIC (µg/mL)
Supply the numeric figure in µg/mL, leaving out any unit text.

What measured MIC is associated with NC(=O)COc1cccc2c[n+](CC3=C(C(=O)[O-])N4C(=O)[C@@H](NC(=O)CSc5cc(Cl)ccc5Cl)[C@H]4SC3)ccc12 on Staphylococcus aureus?
2

What measured MIC is associated with O=C(CSc1cc(Cl)ccc1Cl)N[C@@H]1C(=O)N2C(C(=O)[O-])=C(C[N+]34CCN(CC3)CC4)CS[C@H]12 on Staphylococcus aureus?
4

What measured MIC is associated with O=C(CSc1cc(Cl)ccc1Cl)N[C@@H]1C(=O)N2C(C(=O)[O-])=C(C[n+]3ccc4ccccc4c3)CS[C@H]12 on Staphylococcus aureus?
2

What measured MIC is associated with O=C(CSc1cc(Cl)ccc1Cl)N[C@@H]1C(=O)N2C(C(=O)[O-])=C(C[N+]34CN5CN(CN(C5)C3)C4)CS[C@H]12 on Staphylococcus aureus?
8

What measured MIC is associated with O=C(CSc1cc(Cl)ccc1Cl)N[C@@H]1C(=O)N2C(C(=O)[O-])=C(C[N+]34CCC(CC3)CC4)CS[C@H]12 on Staphylococcus aureus?
2

What measured MIC is associated with O=C(CSc1cc(Cl)ccc1Cl)N[C@@H]1C(=O)N2C(C(=O)[O-])=C(C[n+]3cccc4c3CCCC4)CS[C@H]12 on Staphylococcus aureus?
2

What measured MIC is associated with O=C(CSc1cc(Cl)ccc1Cl)N[C@@H]1C(=O)N2C(C(=O)[O-])=C(C[n+]3ccc4c(c3)CCCC4)CS[C@H]12 on Staphylococcus aureus?
4
